Hello, the source for this data is patent US8003783B2, in case you need it.

- target: 17β-HSD1 (Homo sapiens, UniProt P14061)
- Construct: was measured in intact cell monolayers of T47D and MDA-MB-231 breast cancer cells respectively; endogenous in cells; host or cells: T-47D human breast cancer cells
- assay-protocol: 17β-HSD Type I activity in T-47D cells (E1→E2)
- Format: cell-based
- condition: T47D, 10 μM; T-47D cells, E1→E2; read-out: % inhibition of 17β-HSD1 @ 10 μM
Lab note: compare inhibition at 10 µM against 60%. Equal or greater, write yes (1). Smaller, write no (0).

### Prompt Given the entry CCOCC1CC2C3CCc4cc(O)ccc4C3CC[C@]2(C)C1=O (some centres unmarked) [compound 664] , answer whether its inhibition at 10 µM meets or surpasses 60%.
### Response yes (1)

### Prompt Is it the case that C[C@]12CCC3c4ccc(O)cc4CCC3C1Cc1c2n[nH]c1C(F)(F)F (some centres unmarked) [compound 949] has inhibition at 10 µM reaching or exceeding 60%?
### Response yes (1)

### Prompt Does the reported inhibition at 10 µM for CC(C)NC(=O)c1[nH]nc2c1CC1C3CCc4cc(O)ccc4C3CC[C@]21C (some centres unmarked) [compound 857] fall at or above the 60% mark?
### Response no (0)

### Prompt Item C[C@]12CCC3c4ccc(O)cc4CCC3C1C/C(=C\c1cccs1)[C@@H]2O (some centres unmarked) [compound 507] with inhibition at 10 µM of 60% or above?
### Response no (0)

### Prompt Decide: is the reported value of inhibition at 10 µM for C[C@]12CCC3c4ccc(O)cc4CCC3C1C/C(=C\c1cccnc1)C2=O (some centres unmarked) [compound 320] equal to or greater than 60%?
### Response no (0)

### Prompt # check: inhibition at 10 µM of CNC(=O)CC1CC2C3CCc4cc(O)ccc4C3CC[C@]2(C)[C@H]1O (some centres unmarked) [compound 775] is greater than or equal to 60%
### Response yes (1)

### Prompt Tell me whether inhibition at 10 µM is at least 60% here: COC(=O)C1(CN2C(=O)c3ccccc3C2=O)CC2C3CCc4cc(O)ccc4C3CC[C@]2(C)C1=O (some centres unmarked) [compound 780]
### Response yes (1)

### Prompt Entry C[C@]12CCC3c4ccc(O)cc4CCC3C1CC(CC(=O)NCc1cccnc1)C2=O (some centres unmarked) [compound 670] : is its inhibition at 10 µM no less than 60%?
### Response yes (1)

* * *

- target: 17β-HSD1 (Homo sapiens)
- Construct: was measured in intact cell monolayers of T47D and MDA-MB-231 breast cancer cells respectively; endogenous in cells; host or cells: T-47D human breast cancer cells
- assay-protocol: 17β-HSD Type I activity in T-47D cells (E1→E2)
- Type: cell-based
- condition: T47D, 10 μM; T-47D cells, E1→E2; read-out: % inhibition of 17β-HSD1 @ 10 μM
Answer each item with its documented inhibition at 10 µM.
Could you give me the number in %? Just the number is fine.

Per the record, Cn1c2c(c(=O)n1C)CC1C3CCc4cc(O)ccc4C3CC[C@]21C (some centres unmarked) [compound 942] has inhibition at 10 µM of 32

Recorded inhibition at 10 µM (compound C[C@]12CCC3c4ccc(O)cc4CCC3C1CC(C(=O)O)[C@@H]2O (some centres unmarked) [compound 611] ): 39

# inhibition at 10 µM of C[C@]12CCC3c4ccc(O)cc4CCC3C1C/C(=C\c1ccc(C#N)cc1)C2=O (some centres unmarked) [compound 478] = 39

inhibition at 10 µM for C[C@]12CCC3c4ccc(O)cc4CCC3C1CC(C(=O)NCc1cccnc1)[C@@H]2O (some centres unmarked) [compound 798] is 91

Entry C[C@]12CCC3c4ccc(O)cc4CCC3C1CC(Cc1ccncc1)[C@@H]2O (some centres unmarked) [compound 543] — recorded inhibition at 10 µM = 84

Entry under test: C[C@]12CCC3c4ccc(O)cc4CCC3C1Cc1cn(CCC#N)nc12 (some centres unmarked) [compound 921] . Its inhibition at 10 µM was 95

Input C[C@]12CCC3c4ccc(O)cc4CCC3C1C/C(=C\c1ccccc1)[C@@H]2O (some centres unmarked) [compound 313] . Output inhibition at 10 µM: 26

Data point: Cc1cnc(CNC(=O)C2CC3C4CCc5cc(O)ccc5C4CC[C@]3(C)[C@H]2O)cn1 (some centres unmarked) [compound 803] ; inhibition at 10 µM = 85
